- assayed target: HIV-1 NL4-3 Env on infected cells (HIV-1 group M subtype B, NL4-3 (pNL4-3 …, strain))
endpoint label: binding result

INSERT INTO measurements (binder, endpoint_label, measured_value) VALUES
  ('c8395 (antibody, V domains shown) VH: AVQFLQSGAEVKKPGESLKISCQDRGYGFNDYWIAWVRQMPGKGLEWMGLIYPDDSDTRYSPSFQGQVTILADKSINTAYLQWNSLKASDSAIYYCARLMVVDERSENTFDIWGQGTVVTVFS VL: SSGLAQSPSLSVSPGQTATVTCSGDPLVNHFASWYQQQPGQSPILVIYQDNQRPSGIPERFSGSKTGNTATLTIGETQAADEADYFCQSWDITTAGMIFGGGTKLTVL', 'binding result', 'binds'),
  ('c8517 (antibody, V domains shown) VH: QVTLKESGPTLLRPADTLTLTCNFSGFSLTTDGVALGWMRQSPGKAPEWLAFLFYDDDKQYNPHLKSRLIISKASSTNQLVLAMTNMGPGDAGTYFCARLNVLVHDVPPRNYGLDVWGRGITITVSS VL: DIVLTQSPVSLSVTPGQSASMSCKSSETLLHEDGKSYLYWYLQKPGQSPQLLIYEASKRFSGVSDRFTASGTGTHFTLQIDRVEVDDVGVYYCMENLKALTFGGGTRMEIK', 'binding result', 'binds'),
  ('c10919 (antibody, V domains shown) VH: EVKLVESGGTQVQPGGSLRISCVGSGFRFSSYSFNWVRQAPGKGPEWLAYISASPFGRSKVTYAQSVEGRFTVSRDNDANSLYLQMTGLTRDDTAVYYCARAPYYEGNFHYNYAMDVWGLGTPVIVSS VL: GVVLTQSPGTLSVSPGERATISCRASQSLSRDSLVWYQQKPGQPPRLLIYGTSNRVPGIPDRFSGGGSGTQFTLTISRLEPEDFAVYYCQNYGLSPLFSFGQGTKLEIK', 'binding result', 'binds');
